Test system: IGROV1 ovarian
assay_remarks: NCI-60 one-dose screen, 48 h (100 = growth as untreated, 0 = no growth, -100 = all killed)
test_settings: 10 µM unless noted
The panel holds about 83,000 compounds, 20% with a hit somewhere; the sample as a whole holds those more often.
reported_endpoint: growth (%)
Numbers only, in %.

mol_smiles	growth (%)
Cc1ccc(C(=O)Nc2ccc(-n3ccnc3)c(C(F)(F)F)c2)cc1C#Cc1cnc2cccnn12	20

Would you be so kind as to report growth for each listed record?
1. CC(C)(C)OC(=O)N1C/C(=C\c2ccc(F)cc2)C(=O)/C(=C/c2ccc(F)cc2)C1
2. COc1ccc(C(=O)c2c(N)c(C#N)cn2-c2ccc([N+](=O)[O-])cc2)cc1

[-56.8, 109]

Using known records, supply growth for `CC(C)C[C@H](NC(=O)CNC(=O)C[C@H]1O[C@@H]2OC3(C)CC[C@H]4[C@H](C)CC[C@@H]([C@H]1C)[C@@]24O3)B(O)O` 10.7
